# target.or.system: T1, cCEACAM8, M. fascicularis CEACAM8 ECD (35-332) (Macaca fascicularis)
# T1 construct: With 24 amino acid extension containing a His-Tag; also called cynomolgus CEACAM8
# T1 chain: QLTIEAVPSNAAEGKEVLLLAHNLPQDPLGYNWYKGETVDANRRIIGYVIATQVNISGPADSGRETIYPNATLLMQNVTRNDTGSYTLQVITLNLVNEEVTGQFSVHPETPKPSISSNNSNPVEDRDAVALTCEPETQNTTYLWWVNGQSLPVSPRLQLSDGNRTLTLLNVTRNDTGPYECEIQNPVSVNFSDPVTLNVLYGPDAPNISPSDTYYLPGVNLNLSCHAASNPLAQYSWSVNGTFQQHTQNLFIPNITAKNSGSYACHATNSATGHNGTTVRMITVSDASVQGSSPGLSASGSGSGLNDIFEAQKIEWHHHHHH
# protocol.summary: ELISA
Please respond with reported percentage of binding compared to full binding with cynomolgus CEACAM5 for every item in the list.
A number alone suffices; assume %.

Per the record, chMAb2 (antibody, human IgG1, kappa, V domains shown, Chimeric, human IgG1, Ck isotype; also called MAb2-IgG1; chimeric MAb2) VH: EVQLQESGGVLVKPGGSLKLSCAASGFVFSSYDMSWVRQTPEKRLEWVAYISSGGGITYFPDTVQGRFTVSRDNAKNTLYLQMNSLKSEDTAIYYCAAHYFGSSGPFAYWGQGTLVTVSA VL: DIQMTQSPASLSASVGETVTITCRASENIFSYLAWYQQKQGKSPQLLVYNTKTLAEGVPSRFSGSGSGTQFSLKINSLQPEDFGSYYCQHHYGTPFTFGSGTKLEIKR has percentage of binding compared to full binding with cynomolgus CEACAM5 of 1.2

Per the record, huMAb2-2 (antibody, V domains shown, Humanized MAb2 (VL1a + VH1a) fused to human IgG1 and human Ckappa constant domains; also called MAb2_VL1aVH1a-IgG1; MA2_VL1aVH1a-IgG1) VH: EVQLQESGPGLVKPGGSLSLSCAASGFVFSSYDMSWVRQTPERGLEWVAYISSGGGITYAPSTVKGRFTVSRDNAKNTLYLQMNSLTSEDTAVYYCAAHYFGSSGPFAYWGQGTLVTVSS VL: DIQMTQSPASLSASVGDRVTITCRASENIFSYLAWYQQKPGKSPKLLVYNTKTLAEGVPSRFSGSGSGTDFSLTISSLQPEDFATYYCQHHYGTPFTFGSGTKLEIK has percentage of binding compared to full binding with cynomolgus CEACAM5 of 0.9

Per the record, huMAb2-3 (antibody, human IgG1, kappa, V domains shown, Humanized MAb2, human IgG1 / Ckappa; also called MAb2_VL1cVH1a-IgG1) VH: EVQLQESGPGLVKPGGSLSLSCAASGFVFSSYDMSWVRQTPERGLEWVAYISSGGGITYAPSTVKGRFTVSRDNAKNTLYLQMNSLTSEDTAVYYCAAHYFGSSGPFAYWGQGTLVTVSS VL: DIQMTQSPASLSASVGDRVTITCRASENIFSYLAWYQQKPGKSPKLLVYNTRTLAEGVPSRFSGSGSGTDFSLTISSLQPEDFATYYCQHHYGTPFTFGSGTKLEIKR has percentage of binding compared to full binding with cynomolgus CEACAM5 of 1.2

Per the record, huMAb2-1 (antibody, V domains shown, Humanized MAb2 (VL1 + VH1) fused to human IgG1 and human Ckappa constant domains; also called MAb2_VL1VH1-IgG1; MAb2VL1VH1-IgG1) VH: EVQLQESGPGLVKPGGSLSLSCAASGFVFSSYDMSWVRQTPERRLEWVAYISSGGGITYFPSTVKGRFTVSRDNAKNTLYLQMNSLTSEDTAIYYCAAHYFGSSGPFAYWGQGTLVTVSA VL: DIQMTQSPASLSASVGDTVTITCRASENIFSYLAWYQQKPGKSPKLLVYNTKTLAEGVPSRFSGSGSGTQFSLTISSLQPEDFGSYYCQHHYGTPFTFGSGTKLEIK has percentage of binding compared to full binding with cynomolgus CEACAM5 of 3.6

Per the record, huMAb2-4 (antibody, human IgG1, kappa, V domains shown, Humanized MAb2, human IgG1 / Ckappa; also called MAb2_VL1d VH1-IgG1; MAb2_VL1dVH1-IgG1) VH: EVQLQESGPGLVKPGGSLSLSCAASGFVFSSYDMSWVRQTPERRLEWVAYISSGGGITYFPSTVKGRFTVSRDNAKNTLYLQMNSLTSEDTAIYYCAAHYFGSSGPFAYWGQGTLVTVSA VL: DIQMTQSPASLSASVGDTVTITCRASENIFSYLAWYQQKPGKSPKLLVYNTRTLAEGVPSRFSGSGSGTQFSLTISSLQPEDFGSYYCQHHYGTPFTFGSGTKLEIKR has percentage of binding compared to full binding with cynomolgus CEACAM5 of 3.2
